measuredOn: UniProt:Q8TDX7
Sequence (Q8TDX7 whole entry): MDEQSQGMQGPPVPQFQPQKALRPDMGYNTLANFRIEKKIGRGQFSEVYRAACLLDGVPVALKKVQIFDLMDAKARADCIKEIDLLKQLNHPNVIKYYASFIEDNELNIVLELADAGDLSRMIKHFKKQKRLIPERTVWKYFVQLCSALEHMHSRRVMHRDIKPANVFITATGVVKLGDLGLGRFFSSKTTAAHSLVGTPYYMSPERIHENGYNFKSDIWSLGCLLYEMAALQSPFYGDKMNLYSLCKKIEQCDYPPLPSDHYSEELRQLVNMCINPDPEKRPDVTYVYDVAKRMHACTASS
assay: Kinase panel profiling at 1 µmol/L (MSA or IMAP), percentage inhibition
Format: biochemical
experimentalConditions: NEK7; 1 µmol/L single concentration; read-out: %-inhibition, NEK7
readoutLabel: inhibition at 1 µM (%)
Number only, in %; omit the unit.

Example entries begin here.
COc1ccc(CN2C3CC2CN(c2ccc(-c4cc(OCC(C)(C)O)cn5ncc(C#N)c45)cn2)C3)cn1 1
CCn1c(=O)c(-c2cc(NC(=O)Nc3ccccc3)c(F)cc2Br)cc2cnc(NC)cc21 -7
COC(=O)N[C@@H](C)CNc1nccc(-c2cn(C(C)C)nc2-c2cc(Cl)cc(NS(C)(=O)=O)c2F)n1 5

q: For the compound Cn1cnc2c(F)c(Nc3ccc(Br)cc3F)c(C(=O)NOCCO)cc21 , what inhibition at 1 µM is on record?
a: 2

###

measuredOn: panel of 255 wild-type kinases (Homo sapiens)
assay: Kinase panel profiling at 1 µmol/L (MSA or IMAP), percentage inhibition
Assay type: biochemical
experimentalConditions: kinase skMLCK; 1 µmol/L single concentration; read-out: %-inhibition at 1 µmol/L, skMLCK
# inhibition at 1 µM per entry
Please state the figure in %; there is no need to write the unit.

Examples with answers:
O=C(Nc1cnn2ccc(N3CCC[C@@H]3c3cc(F)ccc3F)nc12)N1CC[C@H](O)C1 -6
CCN1C(=O)N(c2c(F)c(OC)cc(OC)c2F)Cc2cnc3[nH]c(CN4CCOCC4)cc3c21 30
Cc1nc(NC(=O)N2CCC[C@H]2C(N)=O)sc1-c1ccnc(C(C)(C)C(F)(F)F)c1 -3.8
CCN1CCN(c2ccc(Nc3cc(N(C)C(=O)Nc4c(Cl)c(OC)cc(OC)c4Cl)ncn3)cc2)CC1 -3

q: For the record CN1CCN(c2ccc(C(=O)Nc3n[nH]c4ccc(Cc5cc(F)cc(F)c5)cc34)c(NC3CCOCC3)c2)CC1 , what value of inhibition at 1 µM is listed for panel of 255 wild-type kinases (Homo sapiens)?
a: 1.33

q: Hi! What's the reported inhibition at 1 µM for CCc1nc(C(N)=O)c(Nc2ccc(N3CCC(N4CCN(C)CC4)CC3)c(OC)c2)nc1NC1CCOCC1 on panel of 255 wild-type kinases (Homo sapiens)?
a: 5

q: Report inhibition at 1 µM for C=CC(=O)N1CCC([C@@H]2CCNc3c(C(N)=O)c(-c4ccc(Oc5ccccc5)cc4)nn32)CC1 tested on panel of 255 wild-type kinases (Homo sapiens).
a: -2.7

q: Notebook: pull reported inhibition at 1 µM for panel of 255 wild-type kinases (Homo sapiens), entry CCn1c(=O)c(-c2cc(NC(=O)Nc3ccccc3)c(F)cc2Br)cc2cnc(NC)cc21
a: 69

q: Identify the measured inhibition at 1 µM of C[C@H]1Oc2cc(cnc2N)-c2c(nn(C)c2C#N)CN(C)C(=O)c2ccc(F)cc21 for panel of 255 wild-type kinases (Homo sapiens).
a: -0.456

q: Lab note: need inhibition at 1 µM for CO[C@]1(C(=O)N[C@@H](C)c2ccc(-n3cc(F)cn3)nc2)CC[C@H](c2nc(C)cc(Nc3cc(C)[nH]n3)n2)CC1 on panel of 255 wild-type kinases (Homo sapiens), anyone have it?
a: 5

q: Under panel of 255 wild-type kinases (Homo sapiens): inhibition at 1 µM value of FC(F)(F)c1ccc(CNc2ccc(Cc3c[nH]c4ncc(Cl)cc34)cn2)cn1 ?
a: 12

q: Recall the recorded inhibition at 1 µM for C[C@H](Nc1ncnc2nc[nH]c12)c1cc2cccc(Cl)c2c(=O)n1-c1ccccc1 with panel of 255 wild-type kinases (Homo sapiens) and state it.
a: -7

q: Under panel of 255 wild-type kinases (Homo sapiens): inhibition at 1 µM value of Cn1cnc2c(F)c(Nc3ccc(Br)cc3Cl)c(C(=O)NOCCO)cc21 ?
a: 0.627

###

measuredOn: panel of 255 wild-type kinases (Homo sapiens)
assay: Kinase panel profiling at 1 µmol/L (MSA or IMAP), percentage inhibition
Format: biochemical
experimentalConditions: kinase IRR; 1 µmol/L single concentration; read-out: %-inhibition at 1 µmol/L, IRR
Quick reference for inhibition at 1 µM among some molecules

Here are 4 molecules together with their reported answers.
molecule	inhibition at 1 µM
Cc1nc(NC(=O)N2CCC[C@H]2C(N)=O)sc1-c1ccnc(C(C)(C)C(F)(F)F)c1 [alpelisib]	7%
O=C(Nc1cnn2ccc(N3CCC[C@@H]3c3cc(F)ccc3F)nc12)N1CC[C@H](O)C1 [larotrectinib]	1.69%
Cn1cnc2c(F)c(Nc3ccc(Br)cc3F)c(C(=O)NOCCO)cc21 [binimetinib]	-5.48%
Cn1cc(-c2cc3c(N4CCN(c5ncc([C@@](C)(N)c6ccc(F)cc6)cn5)CC4)ncnn3c2)cn1 [avapritinib]	2.37%

q: Return reported inhibition at 1 µM; argument: CCn1c(=O)c(-c2cc(NC(=O)Nc3ccccc3)c(F)cc2Br)cc2cnc(NC)cc21 [ripretinib]
a: 4.5%

q: Item C=CC(=O)N1CCC([C@@H]2CCNc3c(C(N)=O)c(-c4ccc(Oc5ccccc5)cc4)nn32)CC1 [zanubrutinib] has what recorded inhibition at 1 µM?
a: 2.69%

q: For the molecule COC(=O)N[C@@H](C)CNc1nccc(-c2cn(C(C)C)nc2-c2cc(Cl)cc(NS(C)(=O)=O)c2F)n1 [encorafenib] , what inhibition at 1 µM is on record?
a: -3.65%

q: Reported inhibition at 1 µM for Cn1cnc2c(F)c(Nc3ccc(Br)cc3Cl)c(C(=O)NOCCO)cc21 [selumetinib] : what is it?
a: 2.15%

###

measuredOn: panel of 255 wild-type kinases (Homo sapiens)
assay: Kinase panel profiling at 1 µmol/L (MSA or IMAP), percentage inhibition
Assay type: biochemical
experimentalConditions: PASK; 1 µmol/L single concentration; read-out: %-inhibition, PASK
Measured inhibition at 1 µM, listed per entry.
Entry rule: numbers only, all in %.

q: What value of inhibition at 1 µM has been reported for the following compound? CCn1c(=O)c(-c2cc(NC(=O)Nc3ccccc3)c(F)cc2Br)cc2cnc(NC)cc21 [ripretinib]
a: -1

q: Value lookup for inhibition at 1 µM; key = CN1CCN(c2ccc(C(=O)Nc3n[nH]c4ccc(Cc5cc(F)cc(F)c5)cc34)c(NC3CCOCC3)c2)CC1 [entrectinib]
a: 1.19

q: Requested field: inhibition at 1 µM. Item: O=C(Nc1cnn2ccc(N3CCC[C@@H]3c3cc(F)ccc3F)nc12)N1CC[C@H](O)C1 [larotrectinib]
a: 0.745

q: # query: inhibition at 1 µM of entry CCN1C(=O)N(c2c(F)c(OC)cc(OC)c2F)Cc2cnc3[nH]c(CN4CCOCC4)cc3c21 [pemigatinib]
a: -5

q: For the compound shown here, Cn1cnc2c(F)c(Nc3ccc(Br)cc3F)c(C(=O)NOCCO)cc21 [binimetinib] , give the reported inhibition at 1 µM.
a: -2.45

###

Catalogue of compounds with associated inhibition at 1 µM
measuredOn: panel of 255 wild-type kinases (Homo sapiens, UniProt Q12866)
Sequence (Q12866 21-999): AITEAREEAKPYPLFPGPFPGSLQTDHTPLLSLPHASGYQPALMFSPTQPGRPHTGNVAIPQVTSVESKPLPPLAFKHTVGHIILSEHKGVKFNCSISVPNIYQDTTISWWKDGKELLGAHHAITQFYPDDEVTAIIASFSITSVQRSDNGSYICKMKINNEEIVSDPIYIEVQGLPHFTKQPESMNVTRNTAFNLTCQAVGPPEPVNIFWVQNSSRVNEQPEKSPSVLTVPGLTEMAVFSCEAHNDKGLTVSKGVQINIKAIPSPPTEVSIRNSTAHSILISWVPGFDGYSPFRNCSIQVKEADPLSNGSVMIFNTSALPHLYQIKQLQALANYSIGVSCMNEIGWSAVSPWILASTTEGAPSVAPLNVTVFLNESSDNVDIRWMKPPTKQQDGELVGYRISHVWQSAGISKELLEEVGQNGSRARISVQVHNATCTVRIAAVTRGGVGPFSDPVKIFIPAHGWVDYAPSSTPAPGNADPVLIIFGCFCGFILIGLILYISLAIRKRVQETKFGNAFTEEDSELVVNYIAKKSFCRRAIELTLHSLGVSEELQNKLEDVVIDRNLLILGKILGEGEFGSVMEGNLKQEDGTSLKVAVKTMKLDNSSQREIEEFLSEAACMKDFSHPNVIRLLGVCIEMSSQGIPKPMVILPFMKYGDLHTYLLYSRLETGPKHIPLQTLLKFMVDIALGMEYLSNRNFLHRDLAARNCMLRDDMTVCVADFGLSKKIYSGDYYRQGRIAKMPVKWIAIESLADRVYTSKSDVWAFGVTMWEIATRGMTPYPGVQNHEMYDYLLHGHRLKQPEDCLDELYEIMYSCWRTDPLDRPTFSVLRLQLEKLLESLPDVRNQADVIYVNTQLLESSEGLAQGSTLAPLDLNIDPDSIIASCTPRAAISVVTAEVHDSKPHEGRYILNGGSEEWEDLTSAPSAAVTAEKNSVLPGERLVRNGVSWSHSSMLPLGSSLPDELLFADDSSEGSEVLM
assay: Kinase panel profiling at 1 µmol/L (MSA or IMAP), percentage inhibition
Type: biochemical
experimentalConditions: MER; 1 µmol/L single concentration; read-out: %-inhibition, MER
Field: numeric (%). Do not append units.

Worked cases, inhibition at 1 µM given:
compound	inhibition at 1 µM (%)
CCn1c(=O)c(-c2cc(NC(=O)Nc3ccccc3)c(F)cc2Br)cc2cnc(NC)cc21 [ripretinib]	-11
Cc1cc(Nc2ncnc3ccc(NC4=NC(C)(C)CO4)cc23)ccc1Oc1ccn2ncnc2c1 [tucatinib]	12

q: Notebook entry, panel of 255 wild-type kinases (Homo sapiens, UniProt Q12866) assay: inhibition at 1 µM of Cn1cnc2c(F)c(Nc3ccc(Br)cc3Cl)c(C(=O)NOCCO)cc21 [selumetinib] = ?
a: 11

q: inhibition at 1 µM of Cn1cc(-c2cc3c(N4CCN(c5ncc([C@@](C)(N)c6ccc(F)cc6)cn5)CC4)ncnn3c2)cn1 [avapritinib] on panel of 255 wild-type kinases (Homo sapiens, UniProt Q12866)?
a: 17

q: Please provide the recorded inhibition at 1 µM for C[C@H](Nc1ncnc2nc[nH]c12)c1cc2cccc(Cl)c2c(=O)n1-c1ccccc1 [duvelisib] , tested on panel of 255 wild-type kinases (Homo sapiens, UniProt Q12866).
a: -1

q: Query inhibition at 1 µM on panel of 255 wild-type kinases (Homo sapiens, UniProt Q12866) for C=CC(=O)N1CCC([C@@H]2CCNc3c(C(N)=O)c(-c4ccc(Oc5ccccc5)cc4)nn32)CC1 [zanubrutinib]
a: 6

q: Checklist item: inhibition at 1 µM tested on panel of 255 wild-type kinases (Homo sapiens, UniProt Q12866), entry CO[C@]1(C(=O)N[C@@H](C)c2ccc(-n3cc(F)cn3)nc2)CC[C@H](c2nc(C)cc(Nc3cc(C)[nH]n3)n2)CC1 [pralsetinib] , value?
a: 79

q: Test system panel of 255 wild-type kinases (Homo sapiens, UniProt Q12866); read-out inhibition at 1 µM; what value for COC(=O)N[C@@H](C)CNc1nccc(-c2cn(C(C)C)nc2-c2cc(Cl)cc(NS(C)(=O)=O)c2F)n1 [encorafenib] ?
a: 0.281

q: # get_value(readout= inhibition at 1 µM, system= panel of 255 wild-type kinases (Homo sapiens, UniProt Q12866)) for CN1CCN(c2ccc(C(=O)Nc3n[nH]c4ccc(Cc5cc(F)cc(F)c5)cc34)c(NC3CCOCC3)c2)CC1 [entrectinib]
a: 61

q: Quick check: inhibition at 1 µM on panel of 255 wild-type kinases (Homo sapiens, UniProt Q12866), item CCN1C(=O)N(c2c(F)c(OC)cc(OC)c2F)Cc2cnc3[nH]c(CN4CCOCC4)cc3c21 [pemigatinib] ?
a: 7

q: Write down the reported inhibition at 1 µM of COc1cc2ncnc(Nc3ccc(F)c(Cl)c3)c2cc1NC(=O)/C=C/CN1CCCCC1 [dacomitinib] , test system: panel of 255 wild-type kinases (Homo sapiens, UniProt Q12866).
a: 19
